// provenance: ChEMBL document CHEMBL6120980

biological target: Solute carrier family 22 member 1 (Homo sapiens, UniProt O15245); test: Inhibition of human OCT1 expressed in HEK293 cells using [14C]metformin as substrate preincubated for 30 mins followed by substrate addition and measured after 1 to 4 mins
Sequence (O15245 whole entry): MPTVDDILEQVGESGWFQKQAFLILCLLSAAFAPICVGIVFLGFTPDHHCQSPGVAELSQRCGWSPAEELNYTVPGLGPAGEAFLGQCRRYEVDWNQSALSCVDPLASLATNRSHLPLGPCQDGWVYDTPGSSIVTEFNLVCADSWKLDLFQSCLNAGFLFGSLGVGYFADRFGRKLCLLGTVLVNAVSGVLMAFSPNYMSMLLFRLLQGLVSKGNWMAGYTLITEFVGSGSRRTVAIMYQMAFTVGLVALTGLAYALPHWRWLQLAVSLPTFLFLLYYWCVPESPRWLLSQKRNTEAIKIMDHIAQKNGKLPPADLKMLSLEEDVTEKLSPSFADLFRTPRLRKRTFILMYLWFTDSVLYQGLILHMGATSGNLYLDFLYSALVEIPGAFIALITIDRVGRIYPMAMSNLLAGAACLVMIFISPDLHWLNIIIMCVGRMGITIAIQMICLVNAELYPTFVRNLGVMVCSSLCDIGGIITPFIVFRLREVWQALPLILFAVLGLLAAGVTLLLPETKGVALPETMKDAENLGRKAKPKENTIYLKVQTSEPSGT
reported-endpoint: IC50

INSERT INTO assay_data (input_smiles, readout_value) VALUES
  ('COc1c(F)c(F)cc(-c2c(C(=O)O)sc3cc(F)ccc23)c1F', '> 80 µM');

* * *

target: Cytochrome P450 2C19 (Homo sapiens)
Sequence (P33261 whole entry): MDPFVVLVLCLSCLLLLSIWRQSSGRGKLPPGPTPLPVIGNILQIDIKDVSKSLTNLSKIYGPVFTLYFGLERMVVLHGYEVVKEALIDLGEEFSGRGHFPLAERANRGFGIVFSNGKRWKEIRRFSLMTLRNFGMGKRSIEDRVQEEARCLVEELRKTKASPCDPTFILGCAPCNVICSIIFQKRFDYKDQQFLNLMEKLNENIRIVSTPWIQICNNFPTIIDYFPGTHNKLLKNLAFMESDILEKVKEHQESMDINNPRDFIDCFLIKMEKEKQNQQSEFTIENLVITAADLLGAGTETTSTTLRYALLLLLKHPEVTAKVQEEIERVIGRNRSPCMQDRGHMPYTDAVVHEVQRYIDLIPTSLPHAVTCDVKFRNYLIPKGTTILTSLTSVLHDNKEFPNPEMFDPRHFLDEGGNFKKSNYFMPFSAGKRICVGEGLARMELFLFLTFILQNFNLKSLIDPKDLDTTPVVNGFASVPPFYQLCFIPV
pIC50: −log10 of the molar value.
reported-endpoint: pIC50

INSERT INTO assay_data (input_smiles, readout_value) VALUES
  ('COc1c(F)c(F)cc(-c2c(C(=O)O)sc3cc(F)ccc23)c1F', '< 4.00');

* * *

Biological target: Organic anion transporter 3 (Homo sapiens, UniProt Q8TCC7)
Sequence (Q8TCC7 whole entry): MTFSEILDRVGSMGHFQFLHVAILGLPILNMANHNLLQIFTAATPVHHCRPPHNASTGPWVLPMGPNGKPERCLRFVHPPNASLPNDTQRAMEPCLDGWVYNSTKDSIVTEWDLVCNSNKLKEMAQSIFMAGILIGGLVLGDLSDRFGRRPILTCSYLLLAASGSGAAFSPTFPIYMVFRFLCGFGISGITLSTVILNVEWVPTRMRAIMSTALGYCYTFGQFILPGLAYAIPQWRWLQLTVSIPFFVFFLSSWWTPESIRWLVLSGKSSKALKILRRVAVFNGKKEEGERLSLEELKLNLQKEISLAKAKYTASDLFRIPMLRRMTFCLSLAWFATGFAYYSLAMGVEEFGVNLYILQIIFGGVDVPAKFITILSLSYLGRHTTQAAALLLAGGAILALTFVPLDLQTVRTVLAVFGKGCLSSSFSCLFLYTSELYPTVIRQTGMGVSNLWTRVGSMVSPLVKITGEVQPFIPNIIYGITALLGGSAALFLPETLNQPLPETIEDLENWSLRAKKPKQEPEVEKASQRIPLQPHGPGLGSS
Assay: Inhibition of human OAT3 expressed in HEK293 cells using estrone-3-sulfate as substrate preincubated for 30 mins followed by substrate addition and measured after 1 to 4 mins
pIC50: −log10 of the molar value.
reported-endpoint: pIC50

INSERT INTO assay_data (input_smiles, readout_value) VALUES
  ('COc1c(F)c(F)cc(-c2c(C(=O)O)sc3cc(F)ccc23)c1F', 6.17);

* * *

target: Cytochrome P450 3A4 (Homo sapiens); test: Reversible inhibition of human CYP3A4-mediated testosterone-6beta-hydroxylation in human liver microsomes using testosterone as substrate in presence of NADPH; type: ADME, Microsome
Sequence (P08684 whole entry): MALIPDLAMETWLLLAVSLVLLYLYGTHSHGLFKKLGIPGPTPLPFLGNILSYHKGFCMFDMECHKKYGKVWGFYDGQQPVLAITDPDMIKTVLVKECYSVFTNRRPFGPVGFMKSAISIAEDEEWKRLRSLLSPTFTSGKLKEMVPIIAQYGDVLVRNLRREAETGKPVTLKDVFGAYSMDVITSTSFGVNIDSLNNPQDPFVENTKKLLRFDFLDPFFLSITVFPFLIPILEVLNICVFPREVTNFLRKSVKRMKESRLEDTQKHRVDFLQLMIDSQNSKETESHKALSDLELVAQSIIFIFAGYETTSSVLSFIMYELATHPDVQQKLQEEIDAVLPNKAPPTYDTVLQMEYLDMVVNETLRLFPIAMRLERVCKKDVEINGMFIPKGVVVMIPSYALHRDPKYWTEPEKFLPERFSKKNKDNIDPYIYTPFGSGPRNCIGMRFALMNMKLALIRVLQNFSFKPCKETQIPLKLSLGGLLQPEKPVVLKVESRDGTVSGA
pIC50: −log10 of the molar value.
reported-endpoint: pIC50

INSERT INTO results (input_smiles, readout_value) VALUES
  ('COc1c(F)c(F)cc(-c2c(C(=O)O)sc3cc(F)ccc23)c1F', '< 4.00');

* * *

Molecular target: UniProt:Q9NPD5
Sequence (Q9NPD5 whole entry): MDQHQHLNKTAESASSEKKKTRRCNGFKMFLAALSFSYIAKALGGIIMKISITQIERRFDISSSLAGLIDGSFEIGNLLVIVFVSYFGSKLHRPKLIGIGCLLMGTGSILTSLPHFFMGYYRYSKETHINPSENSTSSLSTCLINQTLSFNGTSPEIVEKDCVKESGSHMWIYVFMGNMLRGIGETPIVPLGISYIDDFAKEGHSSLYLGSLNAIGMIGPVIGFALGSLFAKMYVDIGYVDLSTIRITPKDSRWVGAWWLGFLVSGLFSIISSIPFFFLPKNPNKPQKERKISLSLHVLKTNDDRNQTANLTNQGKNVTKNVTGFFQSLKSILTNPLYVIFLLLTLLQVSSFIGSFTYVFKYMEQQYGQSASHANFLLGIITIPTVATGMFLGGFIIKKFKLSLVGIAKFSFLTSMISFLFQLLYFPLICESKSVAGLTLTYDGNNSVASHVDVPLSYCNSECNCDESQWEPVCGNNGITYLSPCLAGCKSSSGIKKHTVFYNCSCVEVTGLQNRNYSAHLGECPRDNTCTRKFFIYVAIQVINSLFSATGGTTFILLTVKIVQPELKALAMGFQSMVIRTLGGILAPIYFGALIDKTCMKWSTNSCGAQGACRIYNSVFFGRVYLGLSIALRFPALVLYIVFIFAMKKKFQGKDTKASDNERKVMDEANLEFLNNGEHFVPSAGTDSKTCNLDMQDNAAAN
Assay: Inhibition of human OATP1B3 expressed in HEK293 cells using rosuvastatin as substrate preincubated for 30 mins followed by substrate addition and measured after 1 to 4 mins
reported-endpoint: IC50

INSERT INTO assay_data (input_smiles, readout_value) VALUES
  ('COc1c(F)c(F)cc(-c2c(C(=O)O)sc3cc(F)ccc23)c1F', '> 80 µM');

* * *

assay: in vitro; conditions: dog, MDCK
Outcome label depends on Papp A→B relative to 20 ×10⁻⁶ cm/s: at/above gives 1, below gives -1.

INSERT INTO assay_data (input_smiles, assigned_category) VALUES
  ('O=C(O)c1sc2cc(F)ccc2c1Cl', 1),
  ('Cc1c(F)c(F)cc(-c2c(C(=O)O)sc3cc(F)ccc23)c1F', -1),
  ('CCOc1c(F)ccc(-c2c(C(=O)O)sc3cc(F)ccc23)c1F', -1),
  ('COc1cccc(-c2c(C(=O)O)sc3cc(F)ccc23)c1F', 1);
